Target: T1, murine CD19 protein (murine, UniProt P25918 19-287, limits assumed)
T1 construct: also called mouse CD19-his protein
T1 sequence (looked up): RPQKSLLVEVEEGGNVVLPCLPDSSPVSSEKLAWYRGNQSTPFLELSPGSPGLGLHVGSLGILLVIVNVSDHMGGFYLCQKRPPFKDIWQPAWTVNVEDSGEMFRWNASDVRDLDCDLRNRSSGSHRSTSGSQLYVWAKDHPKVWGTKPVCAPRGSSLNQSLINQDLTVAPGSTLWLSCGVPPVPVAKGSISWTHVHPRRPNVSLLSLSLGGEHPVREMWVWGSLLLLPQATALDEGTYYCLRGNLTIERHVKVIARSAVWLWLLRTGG
Experiment: ELISA, murine CD19 coated
Each item that follows carries a reported OD450 at 100.00 nM.
Reply numerically in OD450, unit not repeated.

Examples with their reported OD450 at 100.00 nM follow.
{"BINDER": "FMC63.27-mIgG1 (antibody, V domains shown, Humanized FMC63; also called FMC63-L2H7) VH: EVTLKESGPVLVKPTETLTLTCTVSGVSLPDYGVSWIRQPPGKALEWLAVIWGSETTYYNSALKSRLTISKDNSKSQVVLTMTNMDPVDTATYYCAKHYYYGGSYAMDYWGQGTTVTVSS VL: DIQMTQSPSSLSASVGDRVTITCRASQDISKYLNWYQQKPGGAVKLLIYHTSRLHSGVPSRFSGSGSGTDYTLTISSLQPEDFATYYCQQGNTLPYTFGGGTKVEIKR", "OD450 at 100.00 nM / OD450": 0.11}
{"BINDER": "FMC63-mIgG1 (antibody, V domains shown, Parent murine antibody; also called murine antibody FMC63) VH: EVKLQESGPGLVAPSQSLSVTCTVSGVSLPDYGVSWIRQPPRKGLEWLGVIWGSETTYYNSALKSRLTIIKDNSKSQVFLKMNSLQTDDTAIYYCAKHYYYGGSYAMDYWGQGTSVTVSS VL: DIQMTQTTSSLSASLGDRVTISCRASQDISKYLNWYQQKPDGTVKLLIYHTSRLHSGVPSRFSGSGSGTDYSLTISNLEQEDIATYFCQQGNTLPYTFGGGTKLEITR", "OD450 at 100.00 nM / OD450": 0.1}
{"BINDER": "FMC63.26-mIgG1 (antibody, V domains shown, Humanized FMC63; also called FMC63-L2H6) VH: EVTLKESGPVLVKPTETLTLTCTVSGFSLPDYGVSWIRQPPGKALEWLAVIWGSETTYYNSALKSRLTISKDTSKSQVVLTMTNMDPVDTATYYCAKHYYYGGSYAMDYWGQGTTVTVSS VL: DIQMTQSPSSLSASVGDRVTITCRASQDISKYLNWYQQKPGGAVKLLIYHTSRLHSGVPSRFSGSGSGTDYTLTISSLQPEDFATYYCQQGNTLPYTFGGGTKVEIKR", "OD450 at 100.00 nM / OD450": 0.13}

# ---- query binder ----
Would you kindly share the measured OD450 at 100.00 nM for FMC63.25-mIgG1 (antibody, V domains shown, Humanized FMC63; also called FMC63-L2H5) VH: EVTLKESGPVLVKPTETLTLTCTVSGFSLSDYGVSWIRQPPGKALEWLAVIWGSETTYYNSALKSRLTISKDTSKSQVVLTMTNMDPVDTATYYCAKHYYYGGSYAMDYWGQGTTVTVSS VL: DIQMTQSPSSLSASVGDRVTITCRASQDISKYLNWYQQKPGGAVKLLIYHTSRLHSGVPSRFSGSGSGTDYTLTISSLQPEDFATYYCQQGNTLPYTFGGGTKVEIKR ?
0.09

Reference for the values: patent US20230406922A1
